System: A549 NSCLC
Assay: NCI tumour cell line growth inhibition, 48 h
ENDPOINT: TGI

>>> endpoint_value("N=C(N)C(N=Nc1ccccc1)C(=N)N (stereo unspecified)")
"> 100 µM"
>>> endpoint_value("CC(=O)Oc1cc2c(=O)oc3c(OC(C)=O)c(OC(C)=O)c(OC(C)=O)c4c(=O)oc(c1OC(C)=O)c2c34")
"> 100 µM"
>>> endpoint_value("O=C1NC(=O)[C@H]2C3C=CC([C@@H]12)[C@@H]1C(=O)NC(=O)[C@H]31")
"> 100 µM"
>>> endpoint_value("O=C1CC(c2ccccc2)NCN1 (stereo unspecified)")
"> 100 µM"
>>> endpoint_value("COc1cc2c(cc1OCCCCCN1CCN(c3cc(=O)oc4c(C)c(OC)ccc34)CC1)N=C[C@@H]1CCCN1C2=O")
"15.4 µM"
>>> endpoint_value("C/C(=N\\[N+](C)(C)C)C(c1ccccc1)C1(c2ccccc2)C(c2ccccc2)=C1c1ccccc1 (stereo unspecified)")
"> 100 µM"
>>> endpoint_value("COc1ccc(C(=O)O)c2c(=O)c3ccccc3[nH]c12")
"> 100 µM"
>>> endpoint_value("Cc1nc(Nc2ccccc2)sc1C(=O)NNC(N)=O")
"> 100 µM"
>>> endpoint_value("CNC(=O)C(C)NC(=O)C(Cc1ccccc1)NC(=O)OC(C)(C)C (stereo unspecified)")
"> 100 µM"
>>> endpoint_value("C[C@@H](Oc1cc(-c2cnn(C3CC4(CCNCC4)C3)c2)cnc1N)c1c(F)ccc(Cl)c1Cl")
"3.63 µM"
>>> endpoint_value("COc1cc2c3c(n(CCCn4ccnc4)c(=O)c2cc1OC)-c1ccccc1C3=O")
"0.413 µM"

====

System: U251 CNS
Experiment: NCI tumour cell line growth inhibition, 48 h
ENDPOINT: TGI

>>> endpoint_value("Cc1cc(Nc2nc(N3CCOCC3)nc3ccccc23)n[nH]1")
"21.6 µM"
>>> endpoint_value("CCOC(=O)c1ccc2[nH]c(Cc3[nH]c4ccc(C(=O)OCC)cc4c3C)c(C)c2c1")
"7.97 µM"
>>> endpoint_value("CC[N+](CC)(CC)Cc1cn(S(=O)(=O)c2ccccc2)c2ccccc12")
"> 100 µM"
>>> endpoint_value("COc1ccc(OC)c2c(=O)cc(-c3ccccc3)[nH]c12")
"> 100 µM"
>>> endpoint_value("CC(=O)C1=C(O)C2(O)C(=O)c3c(c(C)c4ccc(C)c(O)c4c3O)CC2C(N)C1=O (stereo unspecified)")
"7.82 µM"
>>> endpoint_value("O=c1c2cc([N+](=O)[O-])cnc2sn1-c1ccc(Oc2ccccc2)cc1")
"> 100 µM"
>>> endpoint_value("CNC(=O)C(C)NC(=O)C(Cc1ccccc1)NC(=O)OC(C)(C)C (stereo unspecified)")
"> 100 µM"
>>> endpoint_value("[N-]=[N+]=Nc1cc(=O)n(-c2ccccc2)c(=O)n1-c1ccccc1")
"> 100 µM"
>>> endpoint_value("CCOC(=O)C1C(C(C)C)C2(C#N)C(=N)OC1(C)C2(C#N)C#N (stereo unspecified)")
"> 100 µM"
>>> endpoint_value("C=C(CO)[C@H]1CC/C(C)=C/CC/C(C)=C/C/C=C(\\C)[C@H](O)C1")
"36 µM"
>>> endpoint_value("COC1CCC(OS(C)(=O)=O)CO1 (stereo unspecified)")
"> 100 µM"

# credit: PubChem BioAssay (NCI)
